# Classification values compiled below
# TARGET OR SYSTEM: T1, GST-KIAA0807(S) PDZ domain 1 (Homo sapiens (Human)), Q6P0Q8
# T1 chain: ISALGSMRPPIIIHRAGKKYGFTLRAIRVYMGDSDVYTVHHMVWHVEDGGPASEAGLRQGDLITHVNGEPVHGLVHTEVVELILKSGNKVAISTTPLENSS
# ASSAY SUMMARY: G' assay; also: key of the grades not given here
ATTRIBUTE MEASURED: Classification (A450 class)

>>> print(df.to_string())
                                      binder  observed_result
 0  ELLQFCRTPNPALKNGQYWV (modifications not checked) [CSPG4 (chondroitin sulfae proteoglycan 4, melanoma-associated)]                1
 1  DTLLLTENEGDKTEEQVSYV (modifications not checked) [serotonin receptor 5HT-2B]                1
 2  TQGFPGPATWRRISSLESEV (modifications not checked) [NMDA Glutamate Receptor 2C (cysteine-free)]                5
 3  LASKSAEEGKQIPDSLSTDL (modifications not checked) [DOCK2]                4
 4  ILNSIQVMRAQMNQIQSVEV (modifications not checked) [ephrin B2]                2
 5  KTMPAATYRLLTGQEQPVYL (modifications not checked) [MINT-3]                1
 6  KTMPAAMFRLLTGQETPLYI (modifications not checked) [MINT-2]                4
 7  KKGTYLTDETHREVKFTSL (modifications not checked) [CD46]                5
 8  GGGGGSGGGGGSGIESVKI (modifications not checked) [GLUR2 (glutamate receptor 2-modified)]                1
 9  SSKSKSSEESQTFFGLYKL (modifications not checked) [Fas Ligand]                5
10  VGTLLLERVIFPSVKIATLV (modifications not checked) [AdenoE4 typ9]                3
11  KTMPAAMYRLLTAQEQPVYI (modifications not checked) [MINT-1]                5
12  RDSFHRSSFRKAETQLSQGS (modifications not checked) [Clasp-5]                1
13  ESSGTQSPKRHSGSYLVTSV (modifications not checked) [APC-adenomatous polyposis coli protein]                1
14  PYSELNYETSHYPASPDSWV (modifications not checked) [catenin - delta 2]                3

src = patent US20050282743A1
